target: T1, human tissue factor (TF) on human bladder carcinoma cells J82 (human, UniProt P13726 33-295); test: cell ELISA on paraformaldehyde-fixed J82 cells; AP-conjugated goat anti-human IgGγ; absorbance 405/655 nm
T1 construct: whole, on cells; also called the antigen; J82 cells
T1 sequence (P13726 33-295): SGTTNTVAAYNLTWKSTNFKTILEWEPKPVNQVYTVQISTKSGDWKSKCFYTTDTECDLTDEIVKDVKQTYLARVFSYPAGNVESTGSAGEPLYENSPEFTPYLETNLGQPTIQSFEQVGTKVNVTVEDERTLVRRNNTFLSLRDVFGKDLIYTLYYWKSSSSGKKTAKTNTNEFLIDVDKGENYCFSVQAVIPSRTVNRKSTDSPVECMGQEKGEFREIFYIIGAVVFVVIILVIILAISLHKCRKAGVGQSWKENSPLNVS
measurement.label: binding result

H chain humanized version i/L chain humanized version b1 antibody (antibody, IgG4, V domains shown, also called i-b1) VH: QVQLLESGAVLARPGTSVKISCKASGFNIKDYYMHWVKQRPGQGLEWIGGNDPANGHSMYDPKFQGRVTITADTSTSTAYMELRSLRSDDTAVYYCARDSGYAMDYWGQGTLVTVSS VL: DIQMTQSPSSLSASVGDRVTITCKASQDIKSFLSWFQQKPGKSPKTLIYYATSLADGVPSRFSGSGSGTDYTLTISSLQPEDFATYYCLQHGESPYTFGGGTKVEIK; binds
H chain humanized version i/L chain chimeric antibody (antibody, IgG4, V domains shown, L chain V region is that of mouse ATR-5; also called i-ch) VH: QVQLLESGAVLARPGTSVKISCKASGFNIKDYYMHWVKQRPGQGLEWIGGNDPANGHSMYDPKFQGRVTITADTSTSTAYMELRSLRSDDTAVYYCARDSGYAMDYWGQGTLVTVSS VL: DIKMTQSPSSMYASLGERVTITCKASQDIKSFLSWYQQKPWKSPKTLIYYATSLADGVPSRFSGSGSGQDYSLTINNLESDDTATYYCLQHGESPYTFGGGTKLEIK; binds
H chain chimeric/L chain humanized version b1 antibody (antibody, IgG4, V domains shown, H chain V region is that of mouse ATR-5; also called ch-b1) VH: EVQLQQSGTNLVRPGALVKLSCKGSGFNIKDYYMHWVKQRPEQGLEWIGGNDPANGHSMYDPKFQGKASITADTSSNTAYLQLSSLTSEDTAVYFCARDSGYAMDYWGQGTSVTVSS VL: DIQMTQSPSSLSASVGDRVTITCKASQDIKSFLSWFQQKPGKSPKTLIYYATSLADGVPSRFSGSGSGTDYTLTISSLQPEDFATYYCLQHGESPYTFGGGTKVEIK; binds
H chain humanized version j/L chain humanized version b antibody (antibody, IgG4, V domains shown, also called j-b) VH: QVQLLESGAVLARPGTSVKISCKASGFNIKDYYMHWVKQRPGQGLEWIGGNDPANGHSMYDPKFQGRVTFTADTSANTAYMELRSLRSADTAVYYCARDSGYAMDYWGQGTLVTVSS VL: DIQMTQSPSSLSASVGDRVTITCKASQDIKSFLSWYQQKPGKAPKLLIYYATSLADGVPSRFSGSGSGTDYTLTISSLQPEDFATYYCLQHGESPYTFGGGTKVEIK; binds
